# ASSAYED_TARGET: SSTR1 (Homo sapiens, UniProt P30872)
# Construct: expressed in transfected cells
# Sequence (P30872 whole entry): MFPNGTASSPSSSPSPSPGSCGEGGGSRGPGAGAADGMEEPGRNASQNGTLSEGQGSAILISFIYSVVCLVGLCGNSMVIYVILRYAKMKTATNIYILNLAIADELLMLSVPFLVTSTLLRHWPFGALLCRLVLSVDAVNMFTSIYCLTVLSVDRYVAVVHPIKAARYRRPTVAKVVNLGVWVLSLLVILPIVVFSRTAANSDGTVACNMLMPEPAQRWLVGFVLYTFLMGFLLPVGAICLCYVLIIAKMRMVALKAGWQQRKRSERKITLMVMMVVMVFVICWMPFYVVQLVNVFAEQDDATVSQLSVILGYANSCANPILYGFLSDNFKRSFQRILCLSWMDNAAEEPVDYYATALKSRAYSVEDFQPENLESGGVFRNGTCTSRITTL
# ASSAY_EXPLANATION: cAMP functional agonist assay, CHO cells expressing SSTR1
# Assay type: cell-based
This listing pairs compounds with measured EC50.

Below, each entry is followed by its recorded EC50 result.
Task: Query EC50 for Cc1cc(C)cc(-c2cnc3ncn(-c4cccc(O)c4)c(=O)c3c2CN(C)C[C@@H]2CCCCN2)c1
Output: 0.1 to 10 µM

Task: Query EC50 for Cc1cc(C)cc(-c2cnc3ncn(-c4cccc(O)c4)c(=O)c3c2CN(C)CCN)c1
Output: > 10 µM

Task: Query EC50 for Cc1cc(C)cc(-c2cnc3ncn(-c4cccc(O)c4)c(=O)c3c2CN(C)C[C@@H]2CCCN2)c1
Output: 0.1 to 10 µM

Task: Query EC50 for CCN(CCN)Cc1c(-c2cc(C)cc(C)c2)cnc2ncn(-c3cccc(O)c3)c(=O)c12
Output: > 10 µM

Task: Query EC50 for CN(Cc1c(-c2cc(F)cc(Cl)c2)cnc2ncn(-c3cccc(O)c3)c(=O)c12)C[C@@H]1CCCN1
Output: 0.1 to 10 µM

Task: Query EC50 for Cc1cc(C)cc(-c2cnc3ncn(-c4cccc(O)c4)c(=O)c3c2CN(C)C[C@H]2CCCCN2)c1
Output: > 10 µM

Okay, next one:
Task: Query EC50 for Cc1cc(Cl)cc(-c2cnc3ncn(-c4cccc(O)c4)c(=O)c3c2CN(C)C[C@@H]2CCCN2)c1
Output: 0.1 to 10 µM

* * *

# ASSAYED_TARGET: SSTR5 (Homo sapiens, UniProt P35346)
# Sequence (P35346 whole entry): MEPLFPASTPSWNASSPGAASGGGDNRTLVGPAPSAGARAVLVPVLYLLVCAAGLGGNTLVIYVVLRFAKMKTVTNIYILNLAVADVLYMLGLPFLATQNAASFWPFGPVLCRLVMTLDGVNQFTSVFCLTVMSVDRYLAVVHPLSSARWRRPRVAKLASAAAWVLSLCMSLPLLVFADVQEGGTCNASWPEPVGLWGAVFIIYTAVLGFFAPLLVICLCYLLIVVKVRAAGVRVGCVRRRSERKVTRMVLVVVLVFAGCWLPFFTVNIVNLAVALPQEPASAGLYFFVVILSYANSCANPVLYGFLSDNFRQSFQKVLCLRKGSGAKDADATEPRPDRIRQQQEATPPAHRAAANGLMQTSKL
# ASSAY_EXPLANATION: cAMP functional agonist assay, CHO cells expressing SSTR5
# RUN_CONDITIONS: CHO cells stably expressing SSTR5, cAMP
pEC50: −log10 of the molar value.
MEASUREMENT_LABEL: pEC50

Below, each entry is followed by its recorded pEC50 result.
Task: Query pEC50 for Cc1cc(C)cc(-c2cnc3ncn(-c4cc(C)cc(O)c4)c(=O)c3c2CN(C)C[C@@H]2CCCN2)c1
Output: < 5.00

Task: Query pEC50 for Cc1cc(C)cc(-c2cnc3ncn(-c4cc(O)cc(F)c4)c(=O)c3c2CN(C)C[C@@H]2CCCN2)c1
Output: < 5.00

Task: Query pEC50 for Cc1c(F)cccc1-c1cnc2ncn(-c3cccc(O)c3)c(=O)c2c1CN(C)CC1CCCCN1 (stereo not shown)
Output: 5.00 to 7.00

Task: Query pEC50 for CCOC(=O)CNCCN(CC)Cc1c(-c2cc(C)cc(C)c2)cnc2ncn(-c3cccc(O)c3)c(=O)c12
Output: < 5.00

---
Task: Query pEC50 for CCc1nc2ncc(-c3cc(C)cc(Cl)c3)c(CN(C)C[C@@H]3CCCN3)c2c(=O)n1-c1cccc(O)c1
Output: 5.00 to 7.00

Task: Query pEC50 for Cc1cc(Cl)cc(-c2cnc3ncn(-c4cc(O)cc(OC(F)(F)F)c4)c(=O)c3c2CN(C)C[C@@H]2CCCN2)c1
Output: < 5.00

Task: Query pEC50 for Cc1cc(C)cc(-c2cnc3ncn(-c4cccc(O)c4)c(=O)c3c2CN(C)CC2(N)CCCC2)c1
Output: 5.00 to 7.00

* * *

This listing pairs molecules with measured pEC50.
# ASSAYED_TARGET: UniProtKB P35346
# ASSAY_EXPLANATION: cAMP functional agonist assay, CHO cells expressing SSTR5
# RUN_CONDITIONS: CHO cells stably expressing SSTR5, cAMP
pEC50: −log10 of the molar value.

Task: Query pEC50 for Cc1cc(C)cc(-c2cnc3ncn(-c4cccc(O)c4)c(=O)c3c2CN(CCN)Cc2ccccc2)c1 [Compound A-5]
Output: < 5.00

Task: Query pEC50 for Cc1cc(C)cc(-c2cnc3ncn(-c4cccc(O)c4)c(=O)c3c2CN(C)C[C@@H]2CCCCN2)c1 [Compound A-15]
Output: 5.00 to 7.00

Task: Query pEC50 for Cc1cc(C)cc(-c2cnc3ncn(-c4cccc(O)c4)c(=O)c3c2CN(C)CC2CCCCN2)c1 (stereo not shown) [Compound A-13]
Output: < 5.00

Task: Query pEC50 for Cc1cc(C)cc(-c2cnc3nc(C)n(-c4cc(O)cc(F)c4)c(=O)c3c2CN(C)C[C@@H]2CCCN2)c1 [Compound A-55]
Output: 5.00 to 7.00

Task: Query pEC50 for Cc1cc(F)cc(-c2cnc3ncn(-c4cccc(O)c4)c(=O)c3c2CN(C)C[C@@H]2CCCN2)c1 [Compound A-36]
Output: < 5.00

Task: Query pEC50 for CC[C@H](N)CN(C)Cc1c(-c2cc(C)cc(C)c2)cnc2ncn(-c3cc(O)cc(F)c3)c(=O)c12 [Compound A-62]
Output: 5.00 to 7.00

Task: Query pEC50 for Cc1cc(Cl)cc(-c2cnc3ncn(-c4cc(O)cc(C(F)(F)F)c4)c(=O)c3c2CN(C)C[C@@H]2CCCN2)c1 [Compound A-48]
Output: < 5.00

Data origin: patent US9957267B2
